Source of measurements: patent US8889874B2

# Tested on: HCC-2998 (colon)
# Procedure Details: NCI anticancer screen, SRB assay, 48 h
# Assay type: cell-based, human
# Measurement Conditions: Homo sapiens, 48 h exposure, SRB, read-out: GI50
# reported GI50; entries follow

{"Compound": "O=C(/C=C/c1cccc(O)c1)c1cccc(-n2cc(-c3ccc4ccccc4c3)[nH]c2=O)c1 [12b]", "GI50 / nM": 2130}
{"Compound": "O=C(/C=C/c1cccc(O)c1)c1cccc(-n2cc(-c3ccc(Cl)cc3)[nH]c2=O)c1", "GI50 / nM": 13700}
{"Compound": "COc1cc(/C=C/C(=O)c2cccc(-n3cc(-c4ccccc4)[nH]c3=O)c2)ccc1O", "GI50 / nM": 1510}
{"Compound": "COc1ccc(-c2cn(-c3cccc(C(=O)/C=C/c4ccc(O)c(OC)c4)c3)c(=O)[nH]2)cc1", "GI50 / nM": 2320}

* * *

# System: CAKI-1 (renal)
# Procedure Details: NCI anticancer screen, SRB assay, 48 h
# Format: cell-based, human
# Measurement Conditions: Homo sapiens, 48 h exposure, SRB, read-out: GI50
# Description: Some of biological activity studies were carried out at the National Cancer Institute (NCI), Maryland, USA. The compounds were evaluated for anticancer activity against fifty three human cancer cells derived from nine cancer types (leukemia cell line, non-small-cell lung cell line, colon cell line, CNS cell line, melanoma cell line, ovarian cell line, prostate cell line, and breast cancer cell line) as shown in Table 1. […]

{"Molecule": "O=C(/C=C/c1cccc(O)c1)c1cccc(-n2cc(-c3ccccc3)[nH]c2=O)c1 [4a]", "Test Target": "CAKI-1 (renal)", "GI50 [nM]": 13300}
{"Molecule": "COc1cc(/C=C/C(=O)c2cccc(-n3cc(-c4ccccc4)[nH]c3=O)c2)ccc1O [3a]", "Test Target": "CAKI-1 (renal)", "GI50 [nM]": 2190}
{"Molecule": "COc1cc(/C=C/C(=O)c2cccc(-n3cc(-c4cc(OC)c(OC)c(OC)c4)[nH]c3=O)c2)cc(OC)c1OC [5d]", "Test Target": "CAKI-1 (renal)", "GI50 [nM]": 2890}
{"Molecule": "O=C(/C=C/c1cccc(O)c1)c1cccc(-n2cc(-c3ccc4ccccc4c3)[nH]c2=O)c1 [12b]", "Test Target": "CAKI-1 (renal)", "GI50 [nM]": 1450}
{"Molecule": "O=C(/C=C/c1cccc(O)c1)c1cccc(-n2cc(-c3ccc(Cl)cc3)[nH]c2=O)c1 [4f]", "Test Target": "CAKI-1 (renal)", "GI50 [nM]": 1720}
{"Molecule": "COc1cc(/C=C/C(=O)c2cccc(-n3cc(-c4ccccc4)[nH]c3=O)c2)cc(OC)c1OC [5a]", "Test Target": "CAKI-1 (renal)", "GI50 [nM]": 1750}
